Data provenance is BigSolDB 2.1.

Conditions: in methanol, 288.15 K

SMILES RECORD: CC(=O)c1c(C)c([N+](=O)[O-])c(C(C)(C)C)c([N+](=O)[O-])c1C
solubility (mole fraction): 0.00187

* * *

Details: in DMF, 318.15 K

SMILES RECORD: CC(=O)c1c(C)c([N+](=O)[O-])c(C(C)(C)C)c([N+](=O)[O-])c1C
solubility (mole fraction): 0.211

* * *

Conditions: in isopropanol, 298.15 K
MEASURE: solubility (mole fraction)

SMILES RECORD: CC(=O)c1c(C)c([N+](=O)[O-])c(C(C)(C)C)c([N+](=O)[O-])c1C
MEASURE: solubility (mole fraction)
ENDPOINT RESULT: 0.00408
